substrate: C[S+](CC[C@H](N)C(=O)[O-])C[C@H]1O[C@@H](n2cnc3c(N)ncnc32)[C@H](O)[C@@H]1O; assay: Discontinuous HPLC assay of 5′-FDA formation with SAM varied at 200 mM fluoride; type: biochemical; conditions: pH 7.8; 25.0 °C
Can you tell me kcat for the items I'm about to list?
One number for each entry, in s⁻¹.

Past entries and their recorded results:
stdin: Find the recorded kcat belonging to T80A (Streptantibioticus cattleyicolor; T80A) (protein) AANSTRRPIIAFMSDLGTTDDSVAQCKGLMYSICPDVTVVDVCHSMTPWDVEEGARYIVDLPRFFPEGTVFATTTYPAAGTTTRSVAVRIKQAAKGGARGQWAGSGAGFERAEGSYIYIAPNNGLLTTVLEEHGYLEAYEVTSPKVIPEQPEPTFYSREMVAIPSAHLAAGFPLSEVGRPLEDHEIVRFNRPAVEQDGEALVGVVSAIDHPFGNVWTNIHRTDLEKAGIGYGARLRLTLDGVLPFEAPLTPTFADAGEIGNIAIYLNSRGYLSIARNAASLAYPYHLKEGMSARVEAR and report it.
stdout: 8.33e-05

stdin: Similarly, S158A (Streptantibioticus cattleyicolor; S158A) (protein) AANSTRRPIIAFMSDLGTTDDSVAQCKGLMYSICPDVTVVDVCHSMTPWDVEEGARYIVDLPRFFPEGTVFATTTYPATGTTTRSVAVRIKQAAKGGARGQWAGSGAGFERAEGSYIYIAPNNGLLTTVLEEHGYLEAYEVTSPKVIPEQPEPTFYAREMVAIPSAHLAAGFPLSEVGRPLEDHEIVRFNRPAVEQDGEALVGVVSAIDHPFGNVWTNIHRTDLEKAGIGYGARLRLTLDGVLPFEAPLTPTFADAGEIGNIAIYLNSRGYLSIARNAASLAYPYHLKEGMSARVEAR ?
stdout: 0.00015

Give measured kcat for every item shown.
1. T80S (Streptantibioticus cattleyicolor; T80S) (protein) AANSTRRPIIAFMSDLGTTDDSVAQCKGLMYSICPDVTVVDVCHSMTPWDVEEGARYIVDLPRFFPEGTVFATTTYPASGTTTRSVAVRIKQAAKGGARGQWAGSGAGFERAEGSYIYIAPNNGLLTTVLEEHGYLEAYEVTSPKVIPEQPEPTFYSREMVAIPSAHLAAGFPLSEVGRPLEDHEIVRFNRPAVEQDGEALVGVVSAIDHPFGNVWTNIHRTDLEKAGIGYGARLRLTLDGVLPFEAPLTPTFADAGEIGNIAIYLNSRGYLSIARNAASLAYPYHLKEGMSARVEAR
2. S158G (Streptantibioticus cattleyicolor; S158G) (protein) AANSTRRPIIAFMSDLGTTDDSVAQCKGLMYSICPDVTVVDVCHSMTPWDVEEGARYIVDLPRFFPEGTVFATTTYPATGTTTRSVAVRIKQAAKGGARGQWAGSGAGFERAEGSYIYIAPNNGLLTTVLEEHGYLEAYEVTSPKVIPEQPEPTFYGREMVAIPSAHLAAGFPLSEVGRPLEDHEIVRFNRPAVEQDGEALVGVVSAIDHPFGNVWTNIHRTDLEKAGIGYGARLRLTLDGVLPFEAPLTPTFADAGEIGNIAIYLNSRGYLSIARNAASLAYPYHLKEGMSARVEAR

stdout:
0.001
1.17e-05
